Molecular target: human ACC2 (Homo sapiens (Human), UniProt O00763)
Sequence (O00763 129-2458): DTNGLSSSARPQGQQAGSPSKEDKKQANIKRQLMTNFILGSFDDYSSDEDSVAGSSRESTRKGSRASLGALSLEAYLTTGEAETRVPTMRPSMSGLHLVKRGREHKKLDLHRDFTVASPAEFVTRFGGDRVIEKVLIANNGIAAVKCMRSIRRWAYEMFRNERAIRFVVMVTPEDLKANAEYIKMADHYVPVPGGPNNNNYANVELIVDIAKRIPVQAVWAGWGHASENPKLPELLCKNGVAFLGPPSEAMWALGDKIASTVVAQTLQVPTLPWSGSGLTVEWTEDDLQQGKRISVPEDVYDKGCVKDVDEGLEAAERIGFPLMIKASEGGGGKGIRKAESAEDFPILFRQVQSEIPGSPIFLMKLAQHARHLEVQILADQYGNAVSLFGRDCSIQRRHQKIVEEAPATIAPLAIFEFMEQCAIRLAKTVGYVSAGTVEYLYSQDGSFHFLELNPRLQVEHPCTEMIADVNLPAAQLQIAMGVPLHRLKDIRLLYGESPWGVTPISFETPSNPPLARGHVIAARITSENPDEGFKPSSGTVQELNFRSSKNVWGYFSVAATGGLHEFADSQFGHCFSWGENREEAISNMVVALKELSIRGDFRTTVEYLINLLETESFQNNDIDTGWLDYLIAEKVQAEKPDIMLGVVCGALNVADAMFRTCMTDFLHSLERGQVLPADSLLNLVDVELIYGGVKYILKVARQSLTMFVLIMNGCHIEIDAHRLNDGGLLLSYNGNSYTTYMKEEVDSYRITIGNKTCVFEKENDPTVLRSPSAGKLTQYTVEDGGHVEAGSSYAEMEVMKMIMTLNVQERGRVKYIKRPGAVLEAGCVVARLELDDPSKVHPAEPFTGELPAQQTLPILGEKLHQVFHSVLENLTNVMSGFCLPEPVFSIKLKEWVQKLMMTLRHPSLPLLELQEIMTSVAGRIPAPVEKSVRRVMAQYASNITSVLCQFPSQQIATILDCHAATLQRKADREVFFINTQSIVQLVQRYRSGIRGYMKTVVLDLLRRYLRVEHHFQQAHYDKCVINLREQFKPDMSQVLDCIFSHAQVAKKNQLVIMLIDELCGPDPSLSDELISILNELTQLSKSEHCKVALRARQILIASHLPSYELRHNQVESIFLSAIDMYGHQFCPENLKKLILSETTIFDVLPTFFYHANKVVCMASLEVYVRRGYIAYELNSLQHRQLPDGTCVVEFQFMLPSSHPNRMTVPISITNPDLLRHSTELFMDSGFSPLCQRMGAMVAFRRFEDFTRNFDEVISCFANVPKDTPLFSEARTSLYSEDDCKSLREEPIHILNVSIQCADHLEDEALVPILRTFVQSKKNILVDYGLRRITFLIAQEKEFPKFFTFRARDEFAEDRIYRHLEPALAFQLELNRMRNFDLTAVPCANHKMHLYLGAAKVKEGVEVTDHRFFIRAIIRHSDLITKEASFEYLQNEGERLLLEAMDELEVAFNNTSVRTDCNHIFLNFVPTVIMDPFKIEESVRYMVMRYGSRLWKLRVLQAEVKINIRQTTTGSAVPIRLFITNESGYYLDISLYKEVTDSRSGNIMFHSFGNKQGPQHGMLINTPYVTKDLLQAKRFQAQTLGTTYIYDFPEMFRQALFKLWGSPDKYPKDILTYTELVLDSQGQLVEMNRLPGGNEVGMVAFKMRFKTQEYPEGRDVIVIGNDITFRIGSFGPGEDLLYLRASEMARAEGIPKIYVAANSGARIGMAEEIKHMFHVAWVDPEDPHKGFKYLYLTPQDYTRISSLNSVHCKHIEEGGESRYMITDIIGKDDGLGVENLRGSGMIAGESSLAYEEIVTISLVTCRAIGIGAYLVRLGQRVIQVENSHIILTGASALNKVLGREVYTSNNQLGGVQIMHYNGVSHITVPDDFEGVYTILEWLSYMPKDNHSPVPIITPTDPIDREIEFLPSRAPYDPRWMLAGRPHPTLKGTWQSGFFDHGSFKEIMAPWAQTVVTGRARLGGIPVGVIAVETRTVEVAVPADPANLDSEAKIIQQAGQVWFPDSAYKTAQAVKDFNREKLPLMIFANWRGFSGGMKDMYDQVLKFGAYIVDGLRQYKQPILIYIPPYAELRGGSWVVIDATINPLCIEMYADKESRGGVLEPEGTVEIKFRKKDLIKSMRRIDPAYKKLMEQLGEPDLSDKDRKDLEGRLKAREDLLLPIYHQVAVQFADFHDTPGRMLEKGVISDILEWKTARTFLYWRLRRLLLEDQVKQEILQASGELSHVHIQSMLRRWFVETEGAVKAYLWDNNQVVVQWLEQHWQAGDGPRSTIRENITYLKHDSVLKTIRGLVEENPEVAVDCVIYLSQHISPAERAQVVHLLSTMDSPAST
Assay: ACC2 assay (spectrophotometric 384 well assay, NADH-linked kinetic method)
Format: biochemical
Conditions: hACC2 construct lacking the 128 N-terminal amino acids; 25° C., 340 nm over 15 minutes
Method: Spectrophotometric 384 Well Assay Malonyl CoA formation by acetyl CoA carboxylases is stoichometrically linked to the consumption of ATP. ACC2 activity is measured in a NADH-linked kinetic method measuring ADP generated during the ACC reaction using a coupled lactate dehydrogenase/pyruvate kinase reaction. The protein is then expressed in insect cells using a baculoviral expression system. Protein purification is performed by anion exchange. […]
parameter.measured: IC50 (nM)

CC(CC#N)NC(=O)C(C)c1ccc(O[C@@H]2CCN(c3ccc(OCC4CC4(F)F)cn3)C2)cc1 (stereo partly shown) :: 1120
CC(C(=O)NC1CC1C)c1ccc(O[C@@H]2CCN(c3ncnc(OCC(C)(C)O)c3Cl)C2)cc1 (stereo partly shown) [Example 1.26] :: 325
C#CCNC(=O)C(C)c1ccc(O[C@@H]2CCN(c3ccnc(NCCC)c3F)C2)cc1 (stereo partly shown) :: 266
CCNC(=O)C(C)c1ccc(O[C@@H]2CCN(c3ccc(OCC4CC4(F)F)cn3)C2)cc1 (stereo partly shown) :: 190

[I] CC(C(=O)NC1CC1)c1ccc(O[C@@H]2CCN(c3nc(N(C)C)ncc3F)C2)cc1 (stereo partly shown)
[II] CC(C(=O)NCC(F)F)c1ccc(O[C@@H]2CCN(c3ccc(OCC4CC4(F)F)cn3)C2)cc1 (stereo partly shown)
[III] CC(C(=O)NC1CCC1)c1ccc(O[C@@H]2CCN(c3ncnc(OCC(C)(F)F)c3F)C2)cc1 (stereo partly shown)
Prompt: Hello, I need these entries ordered by IC50, highest reading first. Thanks! Put the labels in the order asked and list them.
Completion: III, II, I

[P] C#CC(C)NC(=O)C(C)c1ccc(O[C@@H]2CCN(c3ccnc(NCCC)c3F)C2)cc1 (stereo partly shown)
[Q] CC[C@@H](C)NC(=O)C(C)c1ccc(O[C@@H]2CCN(c3ccc(OCC4CC4(F)F)cn3)C2)cc1 (stereo partly shown)
Prompt: Parameter check: reported IC50 is higher for which label, P or Q ? Give the chosen item's label as your response.
Completion: P

====

Reported values: IC50 for human ACC2 (Homo sapiens (Human)), one per item.
parameter.measured: IC50 (nM)

Example compounds with recorded IC50:
CCNC(=O)C(C)c1ccc(O[C@@H]2CCN(c3cccc(Cl)c3)C2)cc1 (stereo partly shown) :: 435
CC(C)CNC(=O)C(C)c1ccc(O[C@@H]2CCN(c3ccc(OCC4CC4(F)F)cn3)C2)cc1 (stereo partly shown) :: 907
C#CCNC(=O)C(C)c1ccc(O[C@@H]2CCN(c3ncnc(OCC(C)(F)F)c3F)C2)cc1 (stereo partly shown) :: 441
CC(C(=O)NCC(F)F)c1ccc(O[C@@H]2CCN(c3ncnc(OCC(C)(C)O)c3Cl)C2)cc1 (single isomer, unassigned) [6.5 isomer 1] :: 135
CC(C(=O)NCCCO)c1ccc(O[C@@H]2CCN(c3ccc(OCC4CC4(F)F)cn3)C2)cc1 (stereo partly shown) :: 1380
CC(C(=O)NC1CC1C)c1ccc(O[C@@H]2CCN(c3ncnc(OCC(C)(C)O)c3Cl)C2)cc1 (stereo partly shown) [Example 1.13] :: 233
CC(C(=O)NC1CC1C)c1ccc(O[C@@H]2CCN(c3ncnc(OCC(C)(C)O)c3Cl)C2)cc1 (single isomer, unassigned) [6.4 isomer 2] :: 681
CCCNC(=O)C(C)c1ccc(O[C@@H]2CCN(c3ccnc(NCCC)c3F)C2)cc1 (stereo partly shown) :: 402

[I] CCCNc1nccc(N2CC[C@@H](Oc3ccc(C(C)C(=O)NC4CC4)cc3)C2)c1F (stereo partly shown)
[II] CCNC(=O)C(C)c1ccc(O[C@@H]2CCN(c3ccc(OCC)cc3)C2)cc1 (stereo partly shown)
[III] CC(C(=O)NC1CC1)c1ccc(O[C@@H]2CCN(c3ccc(OCC4CC4(F)F)cn3)C2)cc1 (stereo partly shown)
Prompt: Arrange the 3 entries by IC50 so the values rise. Put the labels in the order asked and list them.
Completion: I, III, II

[I] CC(C(=O)NC1CCC1)c1ccc(O[C@@H]2CCN(c3nc(N(C)C)ncc3F)C2)cc1 (stereo partly shown)
[II] CCNC(=O)C(C)c1ccc(O[C@@H]2CCN(c3ccc(OCCC4CC4)cc3)C2)cc1 (stereo partly shown)
Prompt: Parameter check: reported IC50 is higher for which label, I or II ? Give the chosen item's label as your response.
Completion: I
